// note: pKi values for Estrogen receptor (Homo sapiens, UniProt P03372) were reported in different studies
Biological target: Estrogen receptor (Homo sapiens, UniProt P03372)
Sequence (P03372 whole entry): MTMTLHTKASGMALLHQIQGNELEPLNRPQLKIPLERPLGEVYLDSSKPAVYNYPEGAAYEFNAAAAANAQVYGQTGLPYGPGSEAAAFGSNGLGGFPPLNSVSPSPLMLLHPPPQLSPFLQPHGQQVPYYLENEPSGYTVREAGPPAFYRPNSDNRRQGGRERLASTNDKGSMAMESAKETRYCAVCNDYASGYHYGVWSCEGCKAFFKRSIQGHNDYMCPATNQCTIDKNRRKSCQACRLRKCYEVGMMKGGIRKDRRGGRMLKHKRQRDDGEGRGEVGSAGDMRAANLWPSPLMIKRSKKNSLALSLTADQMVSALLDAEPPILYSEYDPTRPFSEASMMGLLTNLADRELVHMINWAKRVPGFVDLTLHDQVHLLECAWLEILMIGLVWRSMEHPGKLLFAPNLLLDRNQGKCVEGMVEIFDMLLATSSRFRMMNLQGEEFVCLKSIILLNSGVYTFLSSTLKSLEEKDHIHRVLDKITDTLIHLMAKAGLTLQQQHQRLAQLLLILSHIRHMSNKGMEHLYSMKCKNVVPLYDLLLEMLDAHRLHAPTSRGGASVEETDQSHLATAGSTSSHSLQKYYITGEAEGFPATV
pKi: −log10 of the molar value.
// label = 1 if pKi is not less than 6, otherwise 0

{"columns": ["COMPOUND", "CLASSIFICATION"],
 "data": [
  ["Cc1cccc(C)c1OS(=O)(=O)C1CC2OC1C(c1ccc(NC(=O)CCCCCCC(=O)O)cc1)=C2c1ccc(O)cc1 (racemic)", 0],
  ["CC(C)CCCCCOC(=O)/C=C/c1ccc(C(=C2C3CC4CC(C3)CC2C4)c2ccc(O)cc2)cc1", 1],
  ["CCCCc1cc2cc(O)ccc2c(Oc2ccc(/C=C/C(=O)O)cc2)c1-c1ccccc1", 1],
  ["C[C@@](c1ccc(F)cc1F)(c1c[nH]c2c(NS(C)(=O)=O)cccc12)C1CC1", 0],
  ["Oc1ccc(-c2c(-c3ccccc3)nn3c(C(F)(F)F)cc(C(F)(F)F)nc23)cc1", 0],
  ["CN1CCN(c2nc(NCCCc3ccccc3)nc(NCCc3cccc(O)c3)n2)CC1", 0],
  ["C=CCN1CCN(c2nc(NCCc3ccc(O)cc3)nc(N(C)CCCc3ccc(Cl)cc3)n2)CC1", 1]
]}
